# tested target: Tryptase from human lung (human, UniProt Q15661 31-275)
# Sequence (Q15661 31-275): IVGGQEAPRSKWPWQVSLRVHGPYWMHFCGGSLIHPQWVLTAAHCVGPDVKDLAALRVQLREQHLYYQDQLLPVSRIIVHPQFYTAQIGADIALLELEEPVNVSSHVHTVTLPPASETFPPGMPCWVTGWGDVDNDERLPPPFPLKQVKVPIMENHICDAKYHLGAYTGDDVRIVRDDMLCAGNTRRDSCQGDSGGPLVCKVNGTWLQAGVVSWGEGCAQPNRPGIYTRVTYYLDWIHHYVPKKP
# assay remarks: substrate peptide degradation inhibition
pIC50: −log10 of the molar value.
Reported pIC50 values for the following binders.

binder="active MMP-9-binding peptide M91004 (designed binder) GSGMKETAAAKFERQHMDSPDLGTDDDDKAMADIGSANSDPQFGLFSKYRTPNCRQRKGPSCQMAFQPVCGSDMSTYANECTLCMKIREGGHNIKIIRNGPCGASAAA" endpoint_result="< 6.00"

Sample active MMP-9-binding peptide M91001 (designed binder) GSGMKETAAAKFERQHMDSPDLGTDDDDKAMADIGSANSDPQFGLFSKYRTPNCQRGIGPSCQMSYKPVCGSDMSTYANECTLCMKIREGGHNIKIIRNGPCGASAAA — what was its pIC50?
< 6.00
